Where do the numbers come from? From ChEMBL document CHEMBL4265992.

- subject_of_test: Acetylcholinesterase (Anopheles gambiae, UniProt Q869C3)
- Sequence (Q869C3 whole entry): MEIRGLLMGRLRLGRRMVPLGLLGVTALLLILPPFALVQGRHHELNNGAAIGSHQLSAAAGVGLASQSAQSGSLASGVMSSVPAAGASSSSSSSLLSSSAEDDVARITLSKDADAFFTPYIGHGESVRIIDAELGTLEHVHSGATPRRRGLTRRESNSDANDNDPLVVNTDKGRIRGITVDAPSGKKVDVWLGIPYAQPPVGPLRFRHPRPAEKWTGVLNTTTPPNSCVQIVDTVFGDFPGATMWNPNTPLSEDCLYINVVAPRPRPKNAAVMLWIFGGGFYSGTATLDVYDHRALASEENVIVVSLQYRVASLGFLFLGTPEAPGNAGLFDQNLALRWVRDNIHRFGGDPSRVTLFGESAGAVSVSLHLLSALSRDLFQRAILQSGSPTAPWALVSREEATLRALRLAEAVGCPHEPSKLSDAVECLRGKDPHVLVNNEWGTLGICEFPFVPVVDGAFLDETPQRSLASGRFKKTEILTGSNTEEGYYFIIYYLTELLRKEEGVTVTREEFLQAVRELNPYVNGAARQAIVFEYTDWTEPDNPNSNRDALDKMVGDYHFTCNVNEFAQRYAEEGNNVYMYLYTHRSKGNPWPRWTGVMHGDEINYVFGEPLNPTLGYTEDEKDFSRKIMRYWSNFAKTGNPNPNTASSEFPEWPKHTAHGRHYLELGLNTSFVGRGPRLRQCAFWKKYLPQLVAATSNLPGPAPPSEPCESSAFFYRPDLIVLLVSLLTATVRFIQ
- experiment_description: Inhibition of recombinant Anopheles gambiae AChE1 expressed in sf9 insect cells using acetylthiocholine iodide as substrate measured over 60 secs by Ellman assay
Property: pIC50; scope: individual compounds
pIC50 (log units): -log10 of the concentration in mol/L.

Use the examples below as a reference point.
[
  {
    "record_smiles": "COc1ccc(-c2ccc(OCC(=O)NCCCN3CCCCC3)cc2)cc1",
    "observed_property": "pIC50",
    "observed_value": 5.35
  },
  {
    "record_smiles": "CCN1CCN(C2CCN(C(=O)COc3ccc(I)cc3)CC2)CC1",
    "observed_property": "pIC50",
    "observed_value": 5.44
  },
  {
    "record_smiles": "CCN1CCN(CCCNC(=O)COc2ccc(-c3ccccc3)cc2)CC1",
    "observed_property": "pIC50",
    "observed_value": 5.46
  },
  {
    "record_smiles": "CCN1CCN(CCCNC(=O)COc2ccc(I)cc2)CC1",
    "observed_property": "pIC50",
    "observed_value": 4.37
  },
  {
    "record_smiles": "CCN1CCN(C2CCN(C(=O)COc3ccc4c(c3)CCC4=O)CC2)CC1",
    "observed_property": "pIC50",
    "observed_value": 6.54
  }
]

Request: Could you share which pIC50 value was measured for CN1CCN(CCCNC(=O)COc2ccc(-c3ccccc3)cc2)CC1 ?
Result: 4.89

Request: Could you share which pIC50 value was measured for CN1CCN(CCCNC(=O)COc2ccc(I)cc2)CC1 ?
Result: 3.94

Request: Could you share which pIC50 value was measured for O=C(COc1ccc(-c2ccccc2)cc1)N1CCC(N2CCCCC2)CC1 ?
Result: 5.42

Request: Could you share which pIC50 value was measured for CN1CCN(C2CCN(C(=O)COc3ccc(-c4ccccc4)cc3)CC2)CC1 ?
Result: 6.62

Request: Could you share which pIC50 value was measured for CCN1CCN(CCCNC(=O)COc2ccc(-c3ccc(OC)cc3)cc2)CC1 ?
Result: 5.24

Request: Could you share which pIC50 value was measured for CCN1CCN(C2CCN(C(=O)COc3ccc(-c4ccccc4F)cc3)CC2)CC1 ?
Result: 6.62

* * *

- subject_of_test: Acetylcholinesterase (Anopheles gambiae, UniProt Q869C3)
- experiment_description: Inhibition of recombinant Anopheles gambiae AChE1 expressed in sf9 insect cells using acetylthiocholine iodide as substrate measured over 60 secs by Ellman assay
Property: IC50; scope: individual compounds
Response body: numeric value in µM, unit text excluded.

Use the examples below as a reference point.
[
  {
    "record_smiles": "O=C(COc1ccc(I)cc1)NCCCN1CCCCC1",
    "subject_of_test": "Acetylcholinesterase (Anopheles gambiae, UniProt Q869C3)",
    "unit_tag": "µM",
    "observed_value": 44
  },
  {
    "record_smiles": "O=C(COc1ccc(-c2ccccc2)cc1)NCCCN1CCCCC1",
    "subject_of_test": "Acetylcholinesterase (Anopheles gambiae, UniProt Q869C3)",
    "unit_tag": "µM",
    "observed_value": 10
  },
  {
    "record_smiles": "CCN1CCN(C2CCN(C(=O)COc3ccc(-c4ccc(OC)cc4)cc3)CC2)CC1",
    "subject_of_test": "Acetylcholinesterase (Anopheles gambiae, UniProt Q869C3)",
    "unit_tag": "µM",
    "observed_value": 0.4
  },
  {
    "record_smiles": "CCN1CCN(C2CCN(C(=O)COc3ccc(-c4ccc([N+](=O)[O-])cc4)cc3)CC2)CC1",
    "subject_of_test": "Acetylcholinesterase (Anopheles gambiae, UniProt Q869C3)",
    "unit_tag": "µM",
    "observed_value": 0.08
  }
]

// below: IC50 requested for another compound
Request: Could you share which IC50 value was measured for COc1ccc(-c2ccc(OCC(=O)NCCCN3CCN(C)CC3)cc2)cc1 ?
Result: 25

* * *

- experiment_description: Selectivity ratio of IC50 for recombinant human AChE to IC50 for recombinant Aedes aegypti AChE1
Property: Ratio IC50; scope: individual compounds

[
  {
    "record_smiles": "COc1ccc(-c2ccc(OCC(=O)NCCCN3CCN(C)CC3)cc2)cc1",
    "observed_value": 7.6
  },
  {
    "record_smiles": "CN1CCN(CCCNC(=O)COc2ccc(-c3ccccc3)cc2)CC1",
    "observed_value": 8.8
  },
  {
    "record_smiles": "COc1ccc(-c2ccc(OCC(=O)NCCCN3CCCCC3)cc2)cc1",
    "observed_value": 3.1
  },
  {
    "record_smiles": "O=C(COc1ccc(I)cc1)NCCCN1CCCCC1",
    "observed_value": 0.3
  }
]

// below: Ratio IC50 requested for another compound
Request: Could you share which Ratio IC50 value was measured for O=C(COc1ccc(-c2ccccc2)cc1)N1CCC(N2CCCCC2)CC1 ?
Result: 1.2
